In this section, each of the compounds is paired with its reported z-score.
test: yeast growth modulation, basal conditions, primary screen, YJM789 clinical isolate, OD600, 24 h (AID 1089);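 note: growth of clinical yeast isolate S. cerevisiae YJM 789 seeded 1000 cells per well; test concentration not given here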; conditions: S. cerevisiae YJM789 growth, higher = more signal, called active from +8 up or from −8 down
reported-endpoint: z-score

[[record]]
query_smiles = "C[N+](C)(C)CCCC[C@@H]1NC(=O)[C@H]2C[C@@H](C(=O)NCCCCCCNC(=O)CS)[C@@H](c3cccc(OCCO)c3)N2C1=O"
reported_endpoint = "z-score"
numeric_result = -0.173

[[record]]
query_smiles = "C[N+](C)(C)CCCCNC(=O)[C@@H]1C[C@@H]2C(=O)N[C@@H](Cc3ccccc3)C(=O)N2[C@@H]1c1cccc(OCCO)c1"
reported_endpoint = "z-score"
numeric_result = 0.534

[[record]]
query_smiles = "COCCOC(=O)N1C(=O)[C@@]2(c3cc(C#CCNC(N)=O)ccc31)[C@H](C(=O)Nc1nc3ccccc3s1)[C@H]1C(=O)O[C@H](c3ccccc3)[C@H](c3ccccc3)N1[C@@H]2c1ccc(OCCO)cc1"
reported_endpoint = "z-score"
numeric_result = 1.18


* * *

assay: E. coli growth modulation, two-sided OD650, primary screen, E. coli filamentation project, strain DRC41, 24 h (AID 1093); settings: OD650, 24 h, higher = more signal, called active from +8 up or from −8 down;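 note: MC1000 strain lacking acrAB efflux and sulA so SOS filamentation is blocked; test concentration not given here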
# maps each entry to its z-score
reported-endpoint: z-score

[[record]]
compound = "CC(C)C(=C=CC[C@@H](O)c1ccc(OCCO)cc1)C[C@@H](O)c1ccccn1"
reported_endpoint = "z-score"
numeric_result = -0.162

[[record]]
compound = "CC1CC/C=C\\[C@H]2OC34C=CCN(Cc5ccccc5)C(=O)[C@H]3N(CCCO)C(=O)[C@@H]4C2C(=O)O1 (some centres not stated)"
reported_endpoint = "z-score"
numeric_result = 0.56

[[record]]
compound = "C=CCOC(=O)[C@H]1[C@@H]2C(=O)O[C@@H](c3ccccc3)[C@@H](c3ccccc3)N2[C@@H](c2ccc(OCCOC(=O)[C@H]3C[C@H]4C(=O)N[C@@H](CCCC[N+](C)(C)C)C(=O)N4[C@H]3c3ccc(O)cc3)cc2)[C@]12C(=O)Nc1ccc(I)cc12"
reported_endpoint = "z-score"
numeric_result = -0.173

[[record]]
compound = "CC(C)C(O)C1C=CC2C(=O)NC(=O)C2N1Nc1ccc(Cl)cc1Cl (configuration not stated)"
reported_endpoint = "z-score"
numeric_result = -0.805

[[record]]
compound = "C=CCC(OC(C)=O)[C@@H]1[C@@H](N(Cc2ccc(-c3ccccc3)cc2)C(=O)c2ccc(-c3ccccc3)cc2)c2cc(OCCCO)ccc2N1C(=O)Cc1ccc2ccccc2c1 (some centres not stated)"
reported_endpoint = "z-score"
numeric_result = -0.763

[[record]]
compound = "COC(=O)[C@]1(CCC(=O)OC(C)(C)C)N=C(c2ccc(OCCCO)cc2)O[C@@H]1c1ccccc1CN=[N+]=[N-]"
reported_endpoint = "z-score"
numeric_result = -0.511

[[record]]
compound = "CCOC(=O)C[C@H]1[C@H](OC(=O)c2ccc(-c3ccccc3)cc2)[C@@H](NC(=O)Cc2ccc(OC)cc2)c2cc(OCCCO)ccc2N1C(=O)c1ccccc1"
reported_endpoint = "z-score"
numeric_result = -0.69

[[record]]
compound = "C=CCOC(=O)[C@@H]1[C@H]2C(=O)O[C@H](c3ccccc3)[C@H](c3ccccc3)N2[C@H](c2ccc(OCCOC(=O)[C@@H]3C[C@@H]4C(=O)NCC(=O)N4[C@@H]3c3ccc(O)cc3)cc2)[C@@]12C(=O)Nc1ccc(I)cc12"
reported_endpoint = "z-score"
numeric_result = 0.5

[[record]]
compound = "Cc1ccc(S[C@]2(C(=O)NC3CC3)CC(=O)N(Cc3ccccc3)[C@@H]2c2ccc(CO)cc2I)cc1"
reported_endpoint = "z-score"
numeric_result = 0.45

[[record]]
compound = "CC(C)C[C@@H]1NC(=O)[C@@H]2C[C@H](C(=O)O)[C@H](c3cccc(OCCO)c3)N2C1=O"
reported_endpoint = "z-score"
numeric_result = 1.06

[[record]]
compound = "[N-]=[N+]=NCc1ccccc1C[C@]1(C(=O)N2CCCCC2)N=C(c2ccc(OCCCO)cc2)O[C@H]1c1ccccc1N=[N+]=[N-]"
reported_endpoint = "z-score"
numeric_result = -0.442

[[record]]
compound = "NC(=O)NCC#Cc1ccc2c(c1)[C@]1(C(=O)N2)[C@H](c2ccc(O)cc2)N2[C@H](c3ccccc3)[C@H](c3ccccc3)OC(=O)[C@H]2[C@@H]1C(=O)O"
reported_endpoint = "z-score"
numeric_result = -0.504

[[record]]
compound = "CC#CC(=O)Oc1ccccc1C=CC(=O)OCC"
reported_endpoint = "z-score"
numeric_result = 0.316

[[record]]
compound = "COc1ccc(C#Cc2ccc3c(c2)[C@]2(C(=O)N3)[C@H](c3ccccc3OCCO)N3[C@H](c4ccccc4)[C@H](c4ccccc4)OC(=O)[C@H]3[C@@H]2C(=O)Nc2nc3ccccc3s2)cc1"
reported_endpoint = "z-score"
numeric_result = 0.0309

[[record]]
compound = "CC(=O)NCCCC[C@@H]1NC(=O)[C@@H]2C[C@H](C(=O)NCCCCCNC(=O)CS)[C@H](c3cccc(OCCO)c3)N2C1=O"
reported_endpoint = "z-score"
numeric_result = 1.16

[[record]]
compound = "CCCC[C@@H]1C[C@H]1[C@@H](NC(=O)c1cccs1)c1ccc(-c2ccccc2)cc1"
reported_endpoint = "z-score"
numeric_result = -0.692

[[record]]
compound = "COC(=O)[C@@]1(Cc2ccc(F)cc2)[C@H]2c3cc(C(=O)N(C)C)n(Cc4ccccc4)c3C[C@H]2CN1C(=O)c1ccccc1"
reported_endpoint = "z-score"
numeric_result = -0.466

[[record]]
compound = "COc1ccc([C@H]2OC[C@@H]3C[C@@H](Cc4ccccc4)C(=O)N32)cc1"
reported_endpoint = "z-score"
numeric_result = -0.468

[[record]]
compound = "COCCOC(=O)N1C(=O)[C@@]2(c3cc(C#CC4(O)CCCCCC4)ccc31)[C@H](c1ccc(OCCO)cc1)N1[C@H](c3ccccc3)[C@H](c3ccccc3)OC(=O)[C@H]1[C@@H]2C(=O)N1CCN(c2ncccn2)CC1"
reported_endpoint = "z-score"
numeric_result = 0.0846

[[record]]
compound = "O=C1O[C@@H](c2ccccc2)[C@@H](c2ccccc2)N2[C@@H](c3ccccc3OCCO)[C@]3(C(=O)Nc4ccc(C#CC5=CCCCC5)cc43)[C@@H](C(=O)N3CCCCCCC3)[C@H]12"
reported_endpoint = "z-score"
numeric_result = -0.641

[[record]]
compound = "O=C1C2C=CC(C(O)Cc3ccccc3)N(n3cnnc3)C2C(=O)N1Cc1ccccc1 (configuration not stated)"
reported_endpoint = "z-score"
numeric_result = -1.25

[[record]]
compound = "CC(C)C(O)C1C=CC2C(=O)N(c3ccccc3)C(=O)C2N1Nc1ccc([N+](=O)[O-])cc1 (configuration not stated)"
reported_endpoint = "z-score"
numeric_result = 0.171

[[record]]
compound = "O=C1N(Cc2ccccc2)c2ccccc2[C@@H]2OC(c3ccc(OCCCO)cc3)=N[C@]12CCS(=O)(=O)c1ccccc1"
reported_endpoint = "z-score"
numeric_result = 0.0515

[[record]]
compound = "Cc1ccc(S[C@]2(C(=O)NCCCN(C)C)CC(=O)N(Cc3cc(C(F)(F)F)cc(C(F)(F)F)c3)[C@@H]2c2ccc(CO)cc2I)cc1"
reported_endpoint = "z-score"
numeric_result = 0.888

[[record]]
compound = "CC(C)NC(=O)[C@@]1(C)c2ccccc2C(=O)N(Cc2cc(C(F)(F)F)cc(C(F)(F)F)c2)[C@H]1c1ccc(CO)cc1"
reported_endpoint = "z-score"
numeric_result = -0.0192

[[record]]
compound = "CN1C(=O)C2C=CC(C(O)C3CC=CCC3)N(N(c3ccccc3)c3ccccc3)C2C1=O (configuration not stated)"
reported_endpoint = "z-score"
numeric_result = -0.843

[[record]]
compound = "COCCOC(=O)N1C(=O)[C@@]2(c3cc(C#Cc4ccc(OC)cc4)ccc31)[C@H](c1ccc(OCCO)cc1)N1[C@H](c3ccccc3)[C@H](c3ccccc3)OC(=O)[C@H]1[C@@H]2C(=O)N1CCN(c2ncccn2)CC1"
reported_endpoint = "z-score"
numeric_result = 0.468


* * *

test: binders from COS7 lysate, DM2A8 probe, primary screen, torsin A project, cell lysate, small-molecule microarray, fluorescence 635/667 (AID 1065); conditions: higher = more signal, COS7 lysate expressing mutant human TOR1A
Binary call on composite z-score: MET from 0.8 upward, NOT MET beneath that.

[[record]]
compound = "C[C@H]1NC(=O)[C@@]23C(=O)N[C@@H](Cc4ccccc4)C2[C@H](C)[C@@]2(C)O[C@H]2C3/C=C/C/C=C\\CNC(=O)[C@@H]2CCCN2C1=O (stereo partly specified)"
class_assignment = "NOT MET"

[[record]]
compound = "O=C1O[C@@H](c2ccccc2)[C@@H](c2ccccc2)N2[C@@H](c3ccccc3OCCO)[C@]3(C(=O)Nc4ccc(C#CC5=CCCCC5)cc43)[C@@H](C(=O)N3CCCCCCC3)[C@H]12"
class_assignment = "MET"

[[record]]
compound = "C=CCC(OC(C)=O)[C@@H]1[C@@H](N(Cc2ccc(-c3cccc(C(F)(F)F)c3)o2)C(=O)c2ccc(C)cc2)c2cc(OCCCO)ccc2N1C(=O)Cc1ccc2ccccc2c1 (stereo partly specified)"
class_assignment = "NOT MET"

[[record]]
compound = "CN(C)CCCC[C@@H]1NC(=O)[C@H]2C[C@@H](C(=O)NCCCCCCN)[C@@H](c3ccc(O)cc3)N2C1=O"
class_assignment = "MET"

[[record]]
compound = "NC(=O)NCC#Cc1ccc2c(c1)[C@]1(C(=O)N2)[C@H](c2ccccc2OCCO)N2[C@H](c3ccccc3)[C@H](c3ccccc3)OC(=O)[C@H]2[C@@H]1C(=O)Nc1nc2ccccc2s1"
class_assignment = "NOT MET"

